Biological target: T1, Human CD137 ECD (human)
T1 construct: entry includes C-terminal His-tag and biotin acceptor peptide; also called human CD137 extracellular domain; 4-1BB
T1 sequence (chain, as listed by the source limits assumed): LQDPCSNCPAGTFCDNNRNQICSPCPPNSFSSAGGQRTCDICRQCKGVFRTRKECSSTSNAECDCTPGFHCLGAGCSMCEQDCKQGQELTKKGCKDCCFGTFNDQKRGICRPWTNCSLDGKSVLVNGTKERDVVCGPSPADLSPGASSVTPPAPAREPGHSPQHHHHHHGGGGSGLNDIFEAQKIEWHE
Assay: Biacore SPR, vs parent H183/L072
experimental endpoint: fold change of affinity (fold)

binder | data value
H183/L072 VL T31V (antibody, name in Kabat numbering, V domains shown, Dual-Ig) VH: QVQLVESGGGLVQPGRSLRLSCAASGFTFSNAWMHWVRQAPGKGLEWVAQIKDKGNAYAAYYAPSVKGRFTISRDDSKNSIYLQMNSLKTEDTAVYYCHYVHYASASTVLPAFGVDAWGQGTTVTVSS VL: DIVMTQSPLSLPVTPGEPASISCQASQELVHMNRNVYLHWYQQKPGQAPRLLIYKVSNRFPGVPDRFSGSGSGTDFTLKISRVEAEDVGVYYCAQGTSVPFTFGQGTKLEIK | 1
H183/L072 VL A89L (antibody, name in Kabat numbering, V domains shown, Dual-Ig) VH: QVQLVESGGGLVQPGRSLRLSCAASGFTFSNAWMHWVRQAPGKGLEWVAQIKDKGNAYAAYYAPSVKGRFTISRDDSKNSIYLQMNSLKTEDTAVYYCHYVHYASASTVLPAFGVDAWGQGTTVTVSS VL: DIVMTQSPLSLPVTPGEPASISCQASQELVHMNRNTYLHWYQQKPGQAPRLLIYKVSNRFPGVPDRFSGSGSGTDFTLKISRVEAEDVGVYYCLQGTSVPFTFGQGTKLEIK | 0
H183/L072 VL F55V (antibody, name in Kabat numbering, V domains shown, Dual-Ig) VH: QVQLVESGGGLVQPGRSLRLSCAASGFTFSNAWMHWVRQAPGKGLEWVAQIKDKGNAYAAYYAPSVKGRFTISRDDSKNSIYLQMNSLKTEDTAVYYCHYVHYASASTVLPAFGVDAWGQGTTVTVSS VL: DIVMTQSPLSLPVTPGEPASISCQASQELVHMNRNTYLHWYQQKPGQAPRLLIYKVSNRVPGVPDRFSGSGSGTDFTLKISRVEAEDVGVYYCAQGTSVPFTFGQGTKLEIK | 0
